Test system: LXRa homodimer (NR concentration 270 nM)
Experiment: PBM binding z-score (relative to random genomic background probes); higher = stronger binding; sequences stand for … in GC…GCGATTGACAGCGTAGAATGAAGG

| macromolecule_sequence | PBM binding z-score |
| --- | --- |
| CGAACTAGGTCATCCAGGACAGTGAATACATTGA | 0.603 |
| CCTTACGGGCCACTCCAGGTTATAGCATCGGAGT | 0.439 |
| AATCCAGGGTCATCGTAGGCCAGAGTACGCACAG | 1.65 |

---

Here, each record is paired with measured PBM binding z-score data.
Test system: PXR homodimer (NR concentration 270 nM)
Assay: PBM binding z-score (relative to random genomic background probes); higher = stronger binding; sequences stand for … in GC…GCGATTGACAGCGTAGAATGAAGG
measurement_name: PBM binding z-score

| macromolecule_sequence | reported_measurement |
| --- | --- |
| AGAATGAGGTTACGAAAGATCAGGGAAACGCTTG | -0.57 |
| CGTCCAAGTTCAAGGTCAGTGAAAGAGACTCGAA | 3.81 |
| TCGAGTAGGTTAGGGGCATGCAGAATGGCGTCGA | -0.44 |
| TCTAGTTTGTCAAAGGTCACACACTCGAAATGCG | 1.78 |
| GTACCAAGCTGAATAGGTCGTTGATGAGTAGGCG | -0.471 |
| GCGACTGGGGCAAAGCAAGTTACCATAAGGTTGG | -0.458 |
| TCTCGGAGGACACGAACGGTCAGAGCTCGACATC | -0.654 |
| CGTCAAGGTTCAACTAAGGTAACGTAAAGCACGC | 0.241 |
| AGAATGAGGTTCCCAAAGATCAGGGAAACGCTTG | -0.346 |
| CCAGACAGGCGAAAGGTAACTCAGTCTGGTACGC | -0.718 |
| CCAAGTTGGTCAAGGTCACACACGCTATAGGTAC | 4.77 |
| TCTTGAAGATCAGCAGGTTAAGAAAGCTGGCCAA | -0.299 |
| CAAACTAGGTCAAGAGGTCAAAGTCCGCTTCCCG | 2.86 |
| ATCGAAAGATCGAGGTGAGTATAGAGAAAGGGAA | -0.105 |
| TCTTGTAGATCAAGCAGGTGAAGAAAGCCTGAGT | -0.139 |

---

Tested on: PPARa:RXRa (NR concentration 270 nM, RXRa partner concentration 90 nM)
Assay: PBM binding z-score (relative to random genomic background probes); higher = stronger binding; sequences stand for … in GC…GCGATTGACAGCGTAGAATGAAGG

| macromolecule_sequence | tested_system | PBM binding z-score |
| --- | --- | --- |
| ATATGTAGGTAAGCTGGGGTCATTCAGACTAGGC | PPARa:RXRa (NR concentration 270 nM, RXRa partner concentration 90 nM) | 4.98 |
| CGAACGAGGGCATGAGTTGTTAGCAAATGCCGAT | PPARa:RXRa (NR concentration 270 nM, RXRa partner concentration 90 nM) | 1.01 |
| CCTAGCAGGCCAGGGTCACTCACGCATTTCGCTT | PPARa:RXRa (NR concentration 270 nM, RXRa partner concentration 90 nM) | 2.94 |
| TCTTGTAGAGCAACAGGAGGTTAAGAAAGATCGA | PPARa:RXRa (NR concentration 270 nM, RXRa partner concentration 90 nM) | 1.12 |
| CCTGCTAGGTCATGGTGAGCTAATCTACAGTATG | PPARa:RXRa (NR concentration 270 nM, RXRa partner concentration 90 nM) | 3.41 |
| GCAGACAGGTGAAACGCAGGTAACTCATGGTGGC | PPARa:RXRa (NR concentration 270 nM, RXRa partner concentration 90 nM) | 0.901 |
| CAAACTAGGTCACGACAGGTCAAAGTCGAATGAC | PPARa:RXRa (NR concentration 270 nM, RXRa partner concentration 90 nM) | 6.08 |
| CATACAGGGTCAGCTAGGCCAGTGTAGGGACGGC | PPARa:RXRa (NR concentration 270 nM, RXRa partner concentration 90 nM) | 4.09 |
| TCTGCTAGGTCAGTTGGACAGCTAACGAGCTGCC | PPARa:RXRa (NR concentration 270 nM, RXRa partner concentration 90 nM) | 1.12 |
| CCTTACGGGTCACTACAGGTTATAGCATCGGAGT | PPARa:RXRa (NR concentration 270 nM, RXRa partner concentration 90 nM) | 4.69 |
| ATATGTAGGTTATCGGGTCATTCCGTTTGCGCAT | PPARa:RXRa (NR concentration 270 nM, RXRa partner concentration 90 nM) | 4.81 |
| AATACAGGGTCATCGTAGGCCAGAGTCCGCACAG | PPARa:RXRa (NR concentration 270 nM, RXRa partner concentration 90 nM) | 5.96 |
| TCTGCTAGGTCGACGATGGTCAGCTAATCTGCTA | PPARa:RXRa (NR concentration 270 nM, RXRa partner concentration 90 nM) | 0.202 |
| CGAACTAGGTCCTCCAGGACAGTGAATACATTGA | PPARa:RXRa (NR concentration 270 nM, RXRa partner concentration 90 nM) | 0.0563 |
| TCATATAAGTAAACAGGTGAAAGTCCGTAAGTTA | PPARa:RXRa (NR concentration 270 nM, RXRa partner concentration 90 nM) | 1.55 |
| TCGAGTAGGTTACCAATGGGGCAGTCAGCTTTCT | PPARa:RXRa (NR concentration 270 nM, RXRa partner concentration 90 nM) | 1.05 |
| TCATATAGGTACAGGTGAAAGTCGAACGATATGA | PPARa:RXRa (NR concentration 270 nM, RXRa partner concentration 90 nM) | 1.62 |
| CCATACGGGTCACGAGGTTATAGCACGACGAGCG | PPARa:RXRa (NR concentration 270 nM, RXRa partner concentration 90 nM) | 5.93 |
| CAAACTAGGTCAAAGGACAAAGTCGAGCCAACCA | PPARa:RXRa (NR concentration 270 nM, RXRa partner concentration 90 nM) | 5.81 |

---

System: RXRa DBDmut IVT, anti-RXR (DBD mutation: RXRa K156A/R161A, NR concentration 90 nM)
Test: PBM binding z-score (relative to random genomic background probes); higher = stronger binding; sequences stand for … in GC…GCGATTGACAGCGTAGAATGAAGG
measurement_name: PBM binding z-score

| macromolecule_sequence | measurement_name | reported_measurement |
| --- | --- | --- |
| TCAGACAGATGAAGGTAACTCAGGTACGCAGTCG | PBM binding z-score | 1.34 |
| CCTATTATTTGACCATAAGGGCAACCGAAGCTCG | PBM binding z-score | 1.06 |
| CCTCCTGGGCCATCAGGTCATTGATATCAACGTT | PBM binding z-score | -0.401 |
| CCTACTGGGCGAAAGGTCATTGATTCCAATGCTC | PBM binding z-score | 1.01 |

---

Tested on: LXRb:RXRa (NR concentration 270 nM, RXRa partner concentration 90 nM)
Experiment: PBM binding z-score (relative to random genomic background probes); higher = stronger binding; sequences stand for … in GC…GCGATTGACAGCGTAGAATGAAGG
measurement_name: PBM binding z-score

| macromolecule_sequence | tested_system | reported_measurement |
| --- | --- | --- |
| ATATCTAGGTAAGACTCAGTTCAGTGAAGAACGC | LXRb:RXRa (NR concentration 270 nM, RXRa partner concentration 90 nM) | 0.221 |
| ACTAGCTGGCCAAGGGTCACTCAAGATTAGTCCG | LXRb:RXRa (NR concentration 270 nM, RXRa partner concentration 90 nM) | 2.53 |
| TGTCAAAGTTCAAAGGTATCGTAAGTATCCACAC | LXRb:RXRa (NR concentration 270 nM, RXRa partner concentration 90 nM) | 3.88 |
| CCTAGCAGGCCAATCTGGGTCACTCTAGGCTTGA | LXRb:RXRa (NR concentration 270 nM, RXRa partner concentration 90 nM) | 0.28 |
| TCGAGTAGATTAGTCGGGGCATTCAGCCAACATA | LXRb:RXRa (NR concentration 270 nM, RXRa partner concentration 90 nM) | 0.225 |
| TATACAGGGTCAACGGCCAGAGTACGAATGTCGA | LXRb:RXRa (NR concentration 270 nM, RXRa partner concentration 90 nM) | 4.65 |
| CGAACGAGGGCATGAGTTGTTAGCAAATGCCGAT | LXRb:RXRa (NR concentration 270 nM, RXRa partner concentration 90 nM) | 0.156 |
| GCAGACAGGTGAAACGCAGGAAACTCAGGGTGGC | LXRb:RXRa (NR concentration 270 nM, RXRa partner concentration 90 nM) | -0.346 |
| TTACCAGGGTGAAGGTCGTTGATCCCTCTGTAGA | LXRb:RXRa (NR concentration 270 nM, RXRa partner concentration 90 nM) | 1.44 |
| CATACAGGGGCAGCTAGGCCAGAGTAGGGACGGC | LXRb:RXRa (NR concentration 270 nM, RXRa partner concentration 90 nM) | -0.557 |
| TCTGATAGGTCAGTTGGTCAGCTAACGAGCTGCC | LXRb:RXRa (NR concentration 270 nM, RXRa partner concentration 90 nM) | 1.59 |
| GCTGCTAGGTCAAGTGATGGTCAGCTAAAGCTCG | LXRb:RXRa (NR concentration 270 nM, RXRa partner concentration 90 nM) | 1.9 |
| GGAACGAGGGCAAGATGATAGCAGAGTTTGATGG | LXRb:RXRa (NR concentration 270 nM, RXRa partner concentration 90 nM) | 0.0342 |
| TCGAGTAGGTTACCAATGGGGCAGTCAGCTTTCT | LXRb:RXRa (NR concentration 270 nM, RXRa partner concentration 90 nM) | 0.266 |
| TCTAGCAGGCCAAAGGGTCACTCAAGAGGTACGG | LXRb:RXRa (NR concentration 270 nM, RXRa partner concentration 90 nM) | 2.6 |
| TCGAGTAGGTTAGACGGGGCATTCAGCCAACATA | LXRb:RXRa (NR concentration 270 nM, RXRa partner concentration 90 nM) | 0.522 |
| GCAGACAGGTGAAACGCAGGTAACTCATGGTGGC | LXRb:RXRa (NR concentration 270 nM, RXRa partner concentration 90 nM) | -0.224 |
| TGTAGCAGGCCAGAGGGTCACTCAAGAGGTACGG | LXRb:RXRa (NR concentration 270 nM, RXRa partner concentration 90 nM) | 0.665 |
| CGTCCAAGGTCAATGCTCGGTCAGTGAAAGCATT | LXRb:RXRa (NR concentration 270 nM, RXRa partner concentration 90 nM) | 4.04 |
| TCTGCTAGGTCAACGGTGGTCAGCTAATCTGCTA | LXRb:RXRa (NR concentration 270 nM, RXRa partner concentration 90 nM) | 1.6 |
| AGAATGAGGTAAAGATCAGGGAAACAGAATACAT | LXRb:RXRa (NR concentration 270 nM, RXRa partner concentration 90 nM) | 0.517 |
| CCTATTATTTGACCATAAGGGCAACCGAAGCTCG | LXRb:RXRa (NR concentration 270 nM, RXRa partner concentration 90 nM) | 1.02 |
| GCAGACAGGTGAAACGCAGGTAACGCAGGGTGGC | LXRb:RXRa (NR concentration 270 nM, RXRa partner concentration 90 nM) | -0.357 |
